Tested on: HCT-15 colon
Experiment: NCI-60 one-dose screen, 48 h (100 = growth as untreated, 0 = no growth, -100 = all killed)
Details: 10 µM unless noted
Compounds without any hit were thinned out: in the full panel of roughly 83,000, 20% have a hit.
What growth was measured for each of the following?
One number for each entry, in %.

Missing value: growth, HCT-15 colon, entry Cc1[nH]n(C(=O)c2ccncc2)c(=O)c1N=Nc1ccc(F)c(Cl)c1 . Fill in?
111

Now the same for O=C1Nc2c(ccc(Cl)c2Cl)/C1=C/c1ccc([N+](=O)[O-])cc1
89.4

Now the same for CN1CCN(C(=O)OCc2nc3c(N4CCOCC4)nc(-c4ccccc4)nc3n2C)CC1
-59.9

Now the same for CC(=O)N1N=C(c2cccc(Nc3ccncc3)c2)CC1c1ccc2c(c1)OCO2 (stereo not given)
81.2

Now the same for CNC(=O)c1c(NC(=O)c2ccc(C(C)C)cc2)sc2c(CN(C)C)c(O)ccc12
14.2

Now the same for CCNNC(=O)[C@@H]1[C@H](c2cc(OC)c(OC)c(OC)c2)c2cc3c(cc2[C@H](O)[C@H]1CO)OCO3
5.4

Now the same for O=S(=O)(c1ccccc1)N1CCCc2ccccc21
99.3

Now the same for COc1ccc(NC(=O)c2sc3nc(C)c(C(O)c4ccc(OC)cc4)cc3c2N)cc1 (stereo not given)
16.3

Now the same for Cc1ccc(S(=O)(=O)Nc2ccc(Cl)cc2)cc1
107

Continuing:
Missing value: growth, HCT-15 colon, entry CC(=O)O[C@]1(C(C)=O)CC[C@H]2[C@@H]3C=C(Cl)C4=CC(=O)CC[C@]4(C)[C@H]3CC[C@@]21C . Fill in?
102

* * *

Test system: RPMI-8226 leukemia
Experiment: NCI-60 one-dose screen, 48 h
Settings: 10 µM unless noted
The panel holds about 83,000 compounds, 20% with a hit somewhere; the sample as a whole holds those more often. Calls of active or inactive are those of the source. How the source made its calls: active means growth percent below 10; inactive means the rest.
# valid calls are T for active, F for inactive; nothing else

# example entries with known answers
For O=C(CN1CCOCC1)Nc1ccc2ncnc(Nc3ccc(Oc4cccc(C(F)(F)F)c4)c(Cl)c3)c2c1 , what call appears in the results of this test?
F

Now the same for NC(=O)c1ccc[n+](CC(=O)N2CCN(c3cc4c(cc3F)c(=O)c(C(=O)O)cn4C3CC3)CC2)c1
F

Now the same for C=C(C)[C@@H]1CC[C@]2(C(=O)NCC(=O)OC)CC[C@]3(C)[C@H](CC[C@@H]4[C@@]5(C)Cc6c([nH]c7ccccc67)C(C)(C)[C@@H]5CC[C@]43C)[C@@H]12
F

Now the same for CCc1c(Nc2ccc(C)cc2)nc(N)[nH]c1=O
F

Now the same for Cc1cc(NC(=O)c2cnc(N3CCN(CCOCCOCCOCCOCCC(=O)N[C@H](C(=O)N4C[C@H](O)C[C@H]4C(=O)N[C@@H](C)c4ccc(-c5scnc5C)cc4)C(C)(C)C)CC3)cn2)c2ncccc2c1
T

Continuing:
For CCCCCCCCCCN=C(N)N=C(N)N , what call appears in the results of this test?
F

Now the same for COc1cccc(C(Cc2ccccc2)Nc2ccccc2)c1OC (centres undefined)
F

Now the same for COc1ccc(OC)c(/C=C/[C@H]2O[C@@H](C)[C@H](O)[C@@H]2O)c1
F

Now the same for CSc1nnc2c(=O)n(C)c(=O)n(C)c2n1
F

Now the same for COc1ccc(-c2ncc(-c3ccccc3)[nH]2)cc1OC
F

Now the same for COc1ccc(-c2nc(SCCC(C)C)nc(N/N=C(/C)c3ccc(C)cc3)c2C#N)cc1
F

Now the same for CC1(C)CC[C@]2(C(=O)NCC#CCN3CCOCC3)CC[C@]3(C)C(=CC[C@@H]4[C@@]5(C)Cc6c([nH]c7ccccc67)C(C)(C)[C@@H]5CC[C@]43C)[C@@H]2C1
F

Now the same for O=C1Nc2ccccc2/C1=C\c1cccc(/C=C2/C(=O)Nc3ccccc32)n1
T

Now the same for ClCC1(Cn2cnc3c(Cl)nc(Cl)nc32)COC1
F

* * *

System: HS 578T breast
Experiment: NCI-60 one-dose screen, 48 h
Conditions: 10 µM unless noted
About 83,000 compounds went through this panel and 20% of them were active in at least one assay; those are over-represented in the sample as a whole. Activity calls are given as the source filed them. Rule for the calls: active = growth percent below 10; inactive = the rest.
# valid calls are active, inactive; nothing else

For Cn1c(COC(=O)N2CCCCC2)nc2c(N3CCOCC3)nc(-c3ccccc3)nc21 , what call appears in the results of this test?
active

Now the same for COc1cc(C2CC(c3cccc(Nc4ccncc4)c3)=NN2C(C)=O)cc(OC)c1OC (centres undefined)
inactive

Now the same for C=C1C(=O)O[C@H]2[C@H]1CC/C(COC(=O)CCCc1c[nH]c3ccccc13)=C\CC[C@@]1(C)O[C@@H]21
inactive

Now the same for CC(c1ccccc1)n1ccnc1CO (centres undefined)
inactive

Continuing:
For O=C1Nc2ccccc2/C1=C\c1cccc(/C=C2/C(=O)Nc3ccccc32)n1 , what call appears in the results of this test?
active

Now the same for CS(=O)(=O)c1ccc(-c2cc(-c3nnc(SCC(=O)Nc4ccc(C(=O)/C=C/c5ccc(Cl)cc5)cc4)n3-c3ccccc3)c3ccccc3n2)cc1
inactive

Now the same for CN(C)CCCn1c2c(c3ccc(-c4ccn[nH]4)cc3c1=O)C(=O)c1ccccc1-2
inactive

Now the same for COc1cccc2c1C(=O)c1c(O)c3c(c(O)c1C2=O)C[C@@](O)(C(=O)CO)C[C@@H]3O[C@H]1C[C@H](N)[C@@H](O)[C@H](C)O1
active

Now the same for O=CNc1cc(Cl)cc(Cl)c1
inactive

Now the same for CCNC(=O)c1[nH]cc(-c2ccc(OC)cc2)c1-c1cc(OC)cc(OC)c1
inactive

Now the same for COc1ccc(C(=O)c2cc(C)c(OC)c(C)c2)c(OC)c1N(C(=O)C(Cl)Cl)C(=O)C(Cl)Cl
inactive

* * *

System: OVCAR-8 ovarian
Test: NCI-60 one-dose screen, 48 h
Conditions: 10 µM unless noted
About 83,000 compounds went through this panel and 20% of them were active in at least one assay; those are over-represented in the sample as a whole. The source made the active and inactive calls. The calls were made as follows: active = growth percent below 10; inactive = the rest.
# valid calls are YES for active, NO for inactive; nothing else

# example entries with known answers
For C#CCNC(=O)[C@H](Cc1ccccc1)NC(=O)[C@]12CC[C@@H](C(=C)C)[C@@H]1[C@H]1CC[C@@H]3[C@@]4(C)Cc5c([nH]c6ccccc56)C(C)(C)[C@@H]4CC[C@@]3(C)[C@]1(C)CC2 , what call appears in the results of this test?
NO

Now the same for CC1=NNC(=O)C1CCC(=O)N/N=C(\C)c1ccc2ccccc2c1 (centres undefined)
NO

Continuing:
For CC1(C)NCCC[C@]2(C)[C@H]3CC=C4[C@@H]5C[C@@](C)(CO)CC[C@]5(C)CC[C@@]4(C)[C@]3(C)CC[C@@H]12 , what call appears in the results of this test?
NO

Now the same for COc1ccc(OC)c(/C=C/[C@H]2O[C@@H](C)[C@H](O)[C@@H]2O)c1
NO

Now the same for CCN1C(=O)/C(=c2\sc3n(c2=O)NC2C(N=3)N(CC)C(=O)N2CC)c2ccccc21 (centres undefined)
NO

Now the same for COc1cc(-c2nc3sccn3c2-c2ccnc(NCCNS(=O)(=O)c3ccc(F)cc3)n2)ccc1F
YES

Now the same for N#CC1=C(N)Oc2c(ccc3ccccc23)C1c1ccc([N+](=O)[O-])cc1 (centres undefined)
NO

Now the same for ClCC1(Cn2cnc3c(Cl)nc(Cl)nc32)COC1
NO

Now the same for CC(c1ccccc1)n1ccnc1CO (centres undefined)
NO

* * *

Test system: NCI-H226 lung
Experiment: NCI-60 one-dose screen, 48 h
Conditions: 10 µM unless noted
This is part of a sample that, as a whole, favours compounds with a hit. Of some 83,000 tested, about 20% had one in any assay. Active and inactive are the calls of the source. The calls were made as follows: active = growth percent below 10; inactive = the rest.
# valid calls are yes (1) (active), no (0) (inactive); nothing else

# example entries with known answers
For COc1cc(CNC(=O)CCCCC[P+](c2ccccc2)(c2ccccc2)c2ccccc2)c(OC)c2c1OCO2 , what call appears in the results of this test?
no (0)

Now the same for O=C1c2cccnc2C(=O)c2nc3cc(N4CCN(C5CC5)CC4)ccc3nc21
yes (1)

Now the same for CN1C2CCC1CN(c1cnc(C(=O)Nc3cc(F)cc4cccnc34)cn1)C2
no (0)

Continuing:
For COc1ccc(-c2cnc(N)nc2-c2ccc(OC)cc2O)cc1 , what call appears in the results of this test?
no (0)

Now the same for C#Cc1cccc(NC(=O)Nc2ccc(NC(=O)CCl)cc2)c1
yes (1)

Now the same for O=C(Nc1nc(-c2ccccc2Cl)cs1)c1cc(-c2ccccc2)nc2ccc(Cl)cc12
no (0)

Now the same for NC(=S)N/N=C/c1ccc(OC(=O)COc2cc(Cl)c(Cl)cc2Cl)cn1
no (0)

Now the same for COc1cc2nc(Cc3ccc(C)cc3)[nH]c(=O)c2cc1OC
no (0)
